System: HIV-1 (NL4-3 strain)
Experiment: microbe, parasite or virus in culture
Type: cell-based
Conditions: Human immunodeficiency virus 1, NL43, 100% normal human serum (NHS); MT4-GFP cells infected with HIV-1 NL4-3; IP or IC50 from 4-parameter dose response curve; read-out: WILD TYPE CELL ASSAY Viking IP (100% NHS)
measuredProperty: IC50 (nM)
Field: numeric (nM). Do not append units.

In: For the compound C[C@@]12CCCCC[C@@]1(O)Cn1cc(C(=O)NCc3ccc(F)cc3F)c(=O)c(O)c1C2=O [Compound 99] , what IC50 is on record?
Out: 616

In: What about C[C@]12CCCO[C@H]1Cn1cc(C(=O)NCc3ccc(F)c(F)c3F)c(=O)c(O)c1C2=O (single isomer, unassigned) [Compound 20] ?
Out: 839

In: Try the compound C[C@@]12CCCO[C@@H]1Cn1cc(C(=O)NCc3c(F)cc(F)cc3F)c(=O)c(O)c1C2=O (single isomer, unassigned) [Compound 14]
Out: 26
